# Procedure text: Inhibition of Plasmodium falciparum falcipain-3 expressed in Escherichia coli
IC50 strictly under 100 nM means 1; at 100 nM or over means -1.

Determine whether this compound shows IC50 lower than 100 nM (ties excluded): `CC(C)CN(NC(=O)c1cccc2cc[nH]c12)c1nc(C#N)ncc1Br` -1

Moving on to another compound below.
Please determine if `CC(C)CN(NC(=O)c1ccc(-n2ccnc2)cc1)c1nc(C#N)ncc1Br` is below 100 nM in terms of IC50. -1

---

# Procedure text: Inhibition of Plasmodium falciparum falcipain-3 expressed in Escherichia coli
Kindly apply the following: Met if IC50 is less than 70 nM, Not met in every other case.

Check out these entries, answers already filled in.
Is IC50 of `CC(C)CN(NC(=O)c1cc(-c2cccs2)on1)c1nc(C#N)ncc1Br` strictly below 70 nM? Not met

For this compound, is IC50 lower than 70 nM? `CC(C)CN(NC(=O)c1onc2ccccc12)c1nc(C#N)ncc1Br` Not met

Given `CC(C)(C)OC(=O)NN(CCC1CCCCC1)c1nc(C#N)ncc1Br` , is recorded IC50 strictly lower than 70 nM? Not met

Dear colleague, could you confirm whether IC50 of `CC(C)CN(NC(=O)c1ccc(-c2cccc(C(F)(F)F)c2)o1)c1nc(C#N)ncc1Br` falls below 70 nM? Thanks. Not met

Does this compound meet the criterion IC50 < 70 nM? `CC(C)CN(NC(=O)c1ccc2[nH]nnc2c1)c1nc(C#N)ncc1Br` Met

Find out if reported IC50 for `CC1(CN(NC(=O)OC(C)(C)C)c2nc(C#N)ncc2Br)CCCCC1` is less than 70 nM Not met

Given the entry `CN1CCN(Cc2ccc(C(=O)NN(Cc3ccco3)c3nc(C#N)ncc3Br)cc2)CC1` , would its reported IC50 be below 70 nM? Not met

Could you please tell me whether IC50 recorded for `CC(C)(C)OC(=O)NN(c1nc(C#N)ncc1Br)C1CCCC1` is less than 70 nM? Met

Continuing:
Does this compound meet the criterion IC50 < 70 nM? `CCCN1CCN(Cc2ccc(CC(=O)NN(CC(C)C)c3nc(C#N)ncc3Br)cc2)CC1` Met

I wonder whether `Cc1cc(C)c(CC(=O)NN(CC(C)C)c2nc(C#N)ncc2Br)c(C)c1` has IC50 below 70 nM. Can you tell? Met

Hello, is IC50 of the following compound strictly smaller than 70 nM? CC(C)(C)OC(=O)NN(c1nc(C#N)ncc1Br)C1CCCC1(C)C (stereo unspecified) Not met
